# system: HIV-1 Env of pseudovirus isolate MGRM-G-025 (subtype G) (HIV-1)
# assay_comment: cell-based or functional assay
Let's look at some binders and their measured IC50.
measure_name: IC50

INSERT INTO results (binder, measure_name, endpoint_value) VALUES
  ('PGT-126 (antibody, V domains shown) VH: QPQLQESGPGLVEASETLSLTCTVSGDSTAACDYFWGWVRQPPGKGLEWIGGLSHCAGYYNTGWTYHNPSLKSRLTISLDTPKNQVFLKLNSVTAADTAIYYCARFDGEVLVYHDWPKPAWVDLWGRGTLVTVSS VL: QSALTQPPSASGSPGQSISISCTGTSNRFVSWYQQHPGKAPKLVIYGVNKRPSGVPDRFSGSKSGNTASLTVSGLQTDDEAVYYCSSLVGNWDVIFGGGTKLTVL', 'IC50', '17.1 µg/mL'),
  ('PGT-128 (antibody, V domains shown) VH: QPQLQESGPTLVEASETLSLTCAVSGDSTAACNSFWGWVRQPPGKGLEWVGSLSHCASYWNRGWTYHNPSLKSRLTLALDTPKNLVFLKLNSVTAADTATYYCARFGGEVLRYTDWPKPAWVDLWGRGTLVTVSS VL: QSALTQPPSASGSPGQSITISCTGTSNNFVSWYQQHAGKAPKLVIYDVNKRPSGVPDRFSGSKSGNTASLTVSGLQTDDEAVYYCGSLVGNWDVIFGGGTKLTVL', 'IC50', '0.017 µg/mL'),
  ('PGT-131 (antibody, V domains shown) VH: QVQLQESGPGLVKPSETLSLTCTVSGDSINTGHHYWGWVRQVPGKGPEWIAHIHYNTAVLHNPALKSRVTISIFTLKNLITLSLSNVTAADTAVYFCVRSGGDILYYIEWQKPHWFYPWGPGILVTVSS VL: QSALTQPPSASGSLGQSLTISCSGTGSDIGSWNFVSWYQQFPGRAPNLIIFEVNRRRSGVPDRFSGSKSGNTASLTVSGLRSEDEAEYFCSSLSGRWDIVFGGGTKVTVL', 'IC50', '7.75 µg/mL'),
  ('PGT-135 (antibody, V domains shown) VH: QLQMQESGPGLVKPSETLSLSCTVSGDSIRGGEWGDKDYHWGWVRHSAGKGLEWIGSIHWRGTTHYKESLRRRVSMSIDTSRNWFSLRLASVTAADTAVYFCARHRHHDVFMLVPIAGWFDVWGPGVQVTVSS VL: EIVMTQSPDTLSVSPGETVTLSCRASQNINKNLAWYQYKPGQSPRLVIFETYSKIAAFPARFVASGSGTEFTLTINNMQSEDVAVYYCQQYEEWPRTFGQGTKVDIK', 'IC50', '0.592 µg/mL'),
  ('PGT-127 (antibody, V domains shown) VH: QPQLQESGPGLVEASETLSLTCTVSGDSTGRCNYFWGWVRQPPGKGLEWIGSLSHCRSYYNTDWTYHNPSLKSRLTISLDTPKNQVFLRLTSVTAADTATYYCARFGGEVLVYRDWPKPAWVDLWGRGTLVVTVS VL: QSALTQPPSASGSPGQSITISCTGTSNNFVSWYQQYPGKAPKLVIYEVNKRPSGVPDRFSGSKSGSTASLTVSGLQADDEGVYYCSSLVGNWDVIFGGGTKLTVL', 'IC50', '19.3 µg/mL'),
  ('PGT-125 (antibody, V domains shown) VH: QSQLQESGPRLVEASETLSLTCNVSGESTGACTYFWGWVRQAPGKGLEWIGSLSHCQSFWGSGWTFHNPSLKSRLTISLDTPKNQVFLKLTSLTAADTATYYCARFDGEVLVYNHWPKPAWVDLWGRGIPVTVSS VL: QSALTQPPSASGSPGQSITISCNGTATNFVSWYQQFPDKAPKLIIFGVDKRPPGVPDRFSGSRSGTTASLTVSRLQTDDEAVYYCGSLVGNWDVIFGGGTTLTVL', 'IC50', '> 50 µg/mL'),
  ('PGT-123 (antibody, V domains shown) VH: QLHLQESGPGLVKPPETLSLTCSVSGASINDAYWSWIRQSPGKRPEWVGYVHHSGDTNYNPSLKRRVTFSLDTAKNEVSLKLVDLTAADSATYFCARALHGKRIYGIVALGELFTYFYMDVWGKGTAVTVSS VL: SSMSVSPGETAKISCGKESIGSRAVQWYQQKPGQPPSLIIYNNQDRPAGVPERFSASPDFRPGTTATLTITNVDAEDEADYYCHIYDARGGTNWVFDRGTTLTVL', 'IC50', '0.046 µg/mL');
